Assay target: AMP-activated protein kinase, AMPK (Homo sapiens) (UniProt P54646+O43741+P54619+Q9UGJ0+Q9Y478+Q13131+Q9UGI9)
Assay comment: AMP-dependent Kinase enzyme assay. An in vitro enzyme assay that detects ADP turnover that is directly proportional to AMPK activity. This uses naive AMPK that is activated during the assay with MK-8722
Type: functional
Set-up: scale not given: direction of the effect not stated beside the values
Measurement setup: 30 µM
Measured parameter: Percent Effect (%)
One number for each entry, in %.

Recorded results for 3 compounds are shown here.
> print(dat)
                                   compound  measured.parameter  number
1  Cc1cc(CC(=O)NC2CCCN(c3ccccc3F)C2=O)n[nH]1 (configuration not stated)      Percent Effect    10.6
2        CN(Cc1cc(Br)cn1C)C(=O)Cc1cccc(O)c1      Percent Effect  -0.828
3  CCOCCOC(C)C(=O)Nc1nccn1Cc1ccccc1 (configuration not stated)      Percent Effect    -2.1

Dear reader, for each entry below, please note its Percent Effect.
1. Cc1cnc(C(=O)N2CC(=O)N(c3ccccc3Cl)CC2C)cn1 (configuration not stated)
2. CCN(CC)C1CCN(C(=O)Nc2cc(F)c(OC)c(F)c2)C1 (configuration not stated)
3. COC(=O)c1ccc(N(C(=O)c2cscn2)C(C)C)c(C)c1
4. O=C1NCCCCC1NC(=O)N1CCc2ccccc21 (configuration not stated)
5. CCc1ccc(C(=O)NC[C@H]2CCCN2C(=O)c2ccc(CC)o2)o1

[A]
1: 12.5; 2: -3.29; 3: -0.314; 4: -3.02; 5: -0.868
